assay: Mouse pharmacokinetics, single dose; format: in vivo, male C57BL/6 mice; conditions: male, C57BL/6, mouse, in vivo, iv, 1 mg/kg
QUANTITY NAME: clearance

clearance reported for this compound CC(C)[C@H](O)c1nc(-c2cnc(N)c(OC(F)(F)F)c2)cn1C12CC(N3CCOCC3)(C1)C2 [Compound 15, reference compound] : 12 mL/min/kg

###

assay: Rat pharmacokinetics, single dose; format: in vivo, Wistar Han rats; settings: rat, in vivo; Wistar Han rats, IV dose 1 mg/kg
QUANTITY NAME: half-life

Nc1ncc(-c2cn(C34CC(C3)C4)c([C@@H](O)C(F)(F)F)n2)cc1OC(F)(F)F [Compound 13, reference compound] :: 9.94 h

List reported half-life for each of these molecules:
1. Nc1ncc(-c2cn(C34CC(N5CCC(F)(F)CC5)(C3)C4)c([C@H](O)C(F)(F)F)n2)cc1OC(F)(F)F (single isomer, unassigned)
2. Nc1ncc(-c2cn(C34CC(F)(C3)C4)c([C@@H](O)C(F)(F)F)n2)cc1OC(F)(F)F (single isomer, unassigned)

Result:
22.7 h
11.5 h

###

assay: Mouse pharmacokinetics, single dose; format: in vivo, male C57BL/6 mice; conditions: mouse, plasma; male C57BL/6 mice, oral dose 10 mg/kg
QUANTITY NAME: Cmax (µM)
Give bare numbers, in µM.

Here are 2 molecules together with their reported answers.
CC(C)[C@@H](O)c1nc(-c2cnc(N)c(OC(F)(F)F)c2)cn1C12CC(N3CCC(F)(F)CC3)(C1)C2 (single isomer, unassigned) :: 3.54
Nc1ncc(-c2cn(C34CC(N5CCC(F)(F)CC5)(C3)C4)c([C@H](O)C(F)(F)F)n2)cc1OC(F)(F)F (single isomer, unassigned) :: 2.31

List reported Cmax for each of these molecules:
1. CC(C)[C@H](O)c1nc(-c2cnc(N)c(C(F)(F)F)c2)cn1C12CC(C1)C2 [Compound 14b, reference compound]
2. Nc1ncc(-c2cn(C34CC(N5CCOCC5)(C3)C4)c([C@@H](O)C(F)(F)F)n2)cc1OC(F)(F)F [Compound 16, reference compound]

Result:
[3.38, 11.9]

###

assay: Metabolic stability in liver microsomes, monkey; format: in vitro ADME, Cynomolgus monkey; details: 0.5 mg/mL microsomes, NADPH, 45 minutes, 37° C., read-out: Half-life in liver microsomes (t1/2, minutes)
Task for the reader: assign each of the following compounds its reported half-life.
One number for each entry, in min.

Here are 4 compounds together with their reported answers.
Nc1ncc(-c2cn(C34CC(N5CCC(F)(F)CC5)(C3)C4)c([C@H](O)C(F)(F)F)n2)cc1OC(F)(F)F (single isomer, unassigned) [Example 9b] :: 331
Nc1ncc(-c2cn(C34CC(C3)C4)c([C@@H](O)C(F)(F)F)n2)cc1OC(F)(F)F [Compound 13, reference compound] :: 56
CC(C)[C@H](O)c1nc(-c2cnc(N)c(C(F)(F)F)c2)cn1C12CC(C1)C2 [Compound 14b, reference compound] :: 7
CC(C)[C@H](O)c1nc(-c2cnc(N)c(C(F)(F)F)c2)cn1C12CC(F)(C1)C2 (single isomer, unassigned) [Example 4b] :: 22

Consider the additional compound presented here.
half-life reported for this compound Nc1ncc(-c2cn(C34CC(F)(C3)C4)c([C@@H](O)C(F)(F)F)n2)cc1OC(F)(F)F (single isomer, unassigned) [Example 1a] : 182

###

Assay: Metabolic stability in liver microsomes, mouse
Assay type: in vitro ADME, CD-1 mouse
Conditions: CD-1, liver microsomes, 0.5 mg/mL microsomes, NADPH, 45 minutes, 37° C., read-out: Half-life in liver microsomes (t1/2, minutes)
Experimental: The test compound was incubated with liver microsomes (0.5 mg/mL) from CD-1 mouse, Sprague Dawley rat, Beagle dog, Cynomolgus monkey, and human in the presence of NADPH for 45 minutes at 37° C. The % parent remaining over time was determined by LC-MS/MS, using peak area ratios. Half-life (t1/2) was calculated using the following equation: t1/2=ln2/k, where k is the rate constant of parent decay over time (slope of the plot of log[% parent remaining] versus time).
Assign class by half-life: not lower than 200 min means Fulfilled; lower than 200 min means Not fulfilled.

Nc1ncc(-c2cn(C34CC(F)(C3)C4)c([C@@H](O)C(F)(F)F)n2)cc1OC(F)(F)F (single isomer, unassigned) :: Fulfilled
Nc1ncc(-c2cn(C34CC(C3)C4)c([C@@H](O)C(F)(F)F)n2)cc1OC(F)(F)F [Compound 13, reference compound] :: Fulfilled
CC(C)[C@H](O)c1nc(-c2cnc(N)c(C(F)(F)F)c2)cn1C12CC(C1)C2 [Compound 14b, reference compound] :: Not fulfilled
Nc1ncc(-c2cn(C34CC(N5CCOCC5)(C3)C4)c([C@@H](O)C(F)(F)F)n2)cc1OC(F)(F)F [Compound 16, reference compound] :: Fulfilled

Moving on to another compound below.
Ask: Is half-life at least 200 min? Consider Nc1ncc(-c2cn(C34CC(N5CCC(F)(F)CC5)(C3)C4)c([C@H](O)C(F)(F)F)n2)cc1OC(F)(F)F (single isomer, unassigned)
Result: Fulfilled

###

biological target: human DLK (Homo sapiens (Human), UniProt Q12852); experiment: DLK Kd determination (KINOMEscan KdELECT, DiscoveRx); type: binding; conditions: read-out: Kd
Sequence (Q12852 whole entry): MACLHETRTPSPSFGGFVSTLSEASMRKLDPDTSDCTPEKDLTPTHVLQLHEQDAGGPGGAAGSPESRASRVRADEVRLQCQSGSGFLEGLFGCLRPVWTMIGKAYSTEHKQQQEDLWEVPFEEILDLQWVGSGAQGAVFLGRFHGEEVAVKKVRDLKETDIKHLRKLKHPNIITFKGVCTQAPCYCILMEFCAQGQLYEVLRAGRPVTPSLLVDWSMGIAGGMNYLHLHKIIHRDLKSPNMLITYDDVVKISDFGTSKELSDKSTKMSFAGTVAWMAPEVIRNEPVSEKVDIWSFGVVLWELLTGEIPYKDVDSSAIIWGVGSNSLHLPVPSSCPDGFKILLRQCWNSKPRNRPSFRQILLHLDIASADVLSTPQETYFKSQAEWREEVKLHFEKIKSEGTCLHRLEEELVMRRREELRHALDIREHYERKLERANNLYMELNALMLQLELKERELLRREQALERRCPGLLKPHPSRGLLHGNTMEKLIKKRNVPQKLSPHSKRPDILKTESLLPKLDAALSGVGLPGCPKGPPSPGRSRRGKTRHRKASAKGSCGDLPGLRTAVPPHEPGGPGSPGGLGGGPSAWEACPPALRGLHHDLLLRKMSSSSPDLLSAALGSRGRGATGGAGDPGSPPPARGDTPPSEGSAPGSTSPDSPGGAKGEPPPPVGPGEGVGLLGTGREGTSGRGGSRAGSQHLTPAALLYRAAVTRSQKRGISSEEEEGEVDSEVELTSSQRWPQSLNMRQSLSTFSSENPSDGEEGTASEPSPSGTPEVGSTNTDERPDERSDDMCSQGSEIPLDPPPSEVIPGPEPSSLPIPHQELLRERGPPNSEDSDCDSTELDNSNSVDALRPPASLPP
pKd: −log10 of the molar value.
Assign class by pKd: not lower than 9 means true; lower than 9 means false.

Nc1ncc(-c2cn(C34CC(F)(C3)C4)c([C@@H](O)C(F)(F)F)n2)cc1OC(F)(F)F (single isomer, unassigned) [Example 1a] :: false
CC(C)[C@@H](O)c1nc(-c2cnc(N)c(OC(F)(F)F)c2)cn1C12CC(N3CCC(F)(F)CC3)(C1)C2 (single isomer, unassigned) [Example 8a] :: true
CC(C)[C@H](O)c1nc(-c2cnc(N)c(OC(F)(F)F)c2)cn1C12CC(F)(C1)C2 (single isomer, unassigned) [Example 3b] :: true

Moving on to another molecule below.
Ask: Is pKd at least 9? Consider Nc1ncc(-c2cn(C34CC(F)(C3)C4)c(C(O)C3CC3)n2)cc1OC(F)(F)F (centres unmarked) [Example 5]
Result: false

###

experiment: Mouse pharmacokinetics, single dose; format: in vivo, male C57BL/6 mice; conditions: relative to comparator compounds 13 or 14b
QUANTITY NAME: half-life in mice, comparison in words

Here are 4 compounds together with their reported answers.
Nc1ncc(-c2cn(C34CC(N5CCOCC5)(C3)C4)c([C@@H](O)C(F)(F)F)n2)cc1OC(F)(F)F [Compound 16, reference compound] :: longer half-lives
Nc1ncc(-c2cn(C34CC(N5CCC(F)(F)CC5)(C3)C4)c([C@H](O)C(F)(F)F)n2)cc1OC(F)(F)F (single isomer, unassigned) [Example 9b] :: longer half-life
CC(C)[C@H](O)c1nc(-c2cnc(N)c(C(F)(F)F)c2)cn1C12CC(F)(C1)C2 (single isomer, unassigned) [Example 4b] :: longer half-life
Nc1ncc(-c2cn(C34CC(F)(C3)C4)c([C@@H](O)C(F)(F)F)n2)cc1OC(F)(F)F (single isomer, unassigned) [Example 1a] :: longer half-life

Consider the additional compound presented here.
half-life in mice, comparison in words reported for this compound CC(C)[C@H](O)c1nc(-c2cnc(N)c(OC(F)(F)F)c2)cn1C12CC(N3CCOCC3)(C1)C2 [Compound 15, reference compound] : longer half-lives
